As shown below, each of these sequences has a reported switch fluorescence ratio value.
tested on: ATP; experiment: switch fluorescence ratio, 500 uM ATP over buffer (Cy3 cluster intensity, sum of 5 cycles each) (fold (ratio)); higher = stronger signal-on switching upon ATP binding; sequences stand for … in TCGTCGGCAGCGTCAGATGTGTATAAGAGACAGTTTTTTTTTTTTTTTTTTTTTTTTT…TC; conditions: aptamer strand: ATP DNA aptamer (quencher-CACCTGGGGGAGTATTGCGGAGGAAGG + anchor), 100 nM annealed; ATP concentration: 500 uM;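 note: ATP exposure 15 min at 22 °C before imaging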
Returns: the value as a bare number; no unit string appended.

Recorded results for 10 sequences are shown here.
> print(dat)
    sequence.chain  tested.on  quantitative.readout
 1      TCCGCGGTTT        ATP                  1.23
 2      TAACACCGGC        ATP                  1.06
 3      ATTGTCGGCT        ATP                  1.05
 4      AGCTGATACT        ATP                     2
 5      TCTAGGGACA        ATP                  1.25
 6      GTCTGGCTAC        ATP                  1.22
 7      TAACGGGAAT        ATP                  0.99
 8      AAATCGCCTT        ATP                  1.05
 9      TGTGTGTGTT        ATP                  1.02
10      GGTTGCAGAG        ATP                  1.01

Which value of switch fluorescence ratio has been reported for AGGGCTATTT in the records?
0.973

* * *

As shown below, each of these sequences has a reported switch fluorescence ratio value.
tested on: ATP; test: switch fluorescence ratio, 500 uM ATP over buffer (Cy3 cluster intensity, sum of 5 cycles each) (fold (ratio)); higher = stronger signal-on switching upon ATP binding; sequences stand for … in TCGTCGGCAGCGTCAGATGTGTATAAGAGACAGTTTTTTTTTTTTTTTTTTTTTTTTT…TC; details: aptamer strand: ATP DNA aptamer (quencher-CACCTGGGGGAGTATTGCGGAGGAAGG + anchor), 100 nM annealed; ATP concentration: 500 uM;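 note: ATP exposure 15 min at 22 °C before imaging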

Recorded results for 3 sequences are shown here.
> print(dat)
   sequence.chain         attribute.measured  result
1      TAAGATGATC  switch fluorescence ratio   0.988
2      ATGCGGACAG  switch fluorescence ratio    1.01
3       GGGGGAGGT  switch fluorescence ratio   0.986

Which value of switch fluorescence ratio has been reported for AGTAATGTGC in the records?
0.996

Which value of switch fluorescence ratio has been reported for GAGGGGCCGG in the records?
0.972

Which value of switch fluorescence ratio has been reported for TTTGATTGTG in the records?
1.03

Which value of switch fluorescence ratio has been reported for TTGGCTTACT in the records?
1.11

* * *

test system: ATP; assay: switch fluorescence ratio, 500 uM ATP over buffer (Cy3 cluster intensity, sum of 5 cycles each) (fold (ratio)); higher = stronger signal-on switching upon ATP binding; sequences stand for … in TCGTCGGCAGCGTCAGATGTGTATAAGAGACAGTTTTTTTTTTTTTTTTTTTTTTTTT…TC; settings: aptamer strand: ATP DNA aptamer (quencher-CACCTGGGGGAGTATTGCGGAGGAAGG + anchor), 100 nM annealed; ATP concentration: 500 uM;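 note: ATP exposure 15 min at 22 °C before imaging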
As shown below, each of these sequences has a reported switch fluorescence ratio value.
Returns: the value as a bare number; no unit string appended.

> print(dat)
   sequence.chain  quantitative.readout
1      AGGGCGTCTA                  1.02

Which value of switch fluorescence ratio has been reported for CGAAAAATAG in the records?
0.985

Which value of switch fluorescence ratio has been reported for AGAGGAGTCT in the records?
0.971

Which value of switch fluorescence ratio has been reported for ATTTGTGGAC in the records?
0.973

* * *

system: ATP; test: switch fluorescence ratio, 500 uM ATP over buffer (Cy3 cluster intensity, sum of 5 cycles each) (fold (ratio)); higher = stronger signal-on switching upon ATP binding; sequences stand for … in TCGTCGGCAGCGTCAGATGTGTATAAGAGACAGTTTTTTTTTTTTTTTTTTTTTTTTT…TC; settings: aptamer strand: ATP DNA aptamer (quencher-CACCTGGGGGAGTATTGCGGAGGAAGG + anchor), 100 nM annealed; ATP concentration: 500 uM;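 note: ATP exposure 15 min at 22 °C before imaging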
Attribute measured: switch fluorescence ratio
Returns: the value as a bare number; no unit string appended.

> print(dat)
   sequence.chain         attribute.measured  quantitative.readout
1      ATGCGAGCAA  switch fluorescence ratio                  1.11

Which value of switch fluorescence ratio has been reported for ATGTGCATGT in the records?
0.986

Which value of switch fluorescence ratio has been reported for CCGAGCGGGA in the records?
1.77

Which value of switch fluorescence ratio has been reported for CATATCGAAA in the records?
1.01

Which value of switch fluorescence ratio has been reported for TAGGGGTGAG in the records?
1.04

Which value of switch fluorescence ratio has been reported for ACCGATACCC in the records?
1.31

Which value of switch fluorescence ratio has been reported for TATAGTACGG in the records?
1.05

Which value of switch fluorescence ratio has been reported for TTTGGGATGG in the records?
0.983

Which value of switch fluorescence ratio has been reported for ACAGAAGGGA in the records?
1.03

Which value of switch fluorescence ratio has been reported for TCGACTCACT in the records?
1.2

* * *

test system: ATP; experiment: switch fluorescence ratio, 500 uM ATP over buffer (Cy3 cluster intensity, sum of 5 cycles each) (fold (ratio)); higher = stronger signal-on switching upon ATP binding; sequences stand for … in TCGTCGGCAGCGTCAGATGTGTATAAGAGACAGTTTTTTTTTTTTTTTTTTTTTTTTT…TC; settings: aptamer strand: ATP DNA aptamer (quencher-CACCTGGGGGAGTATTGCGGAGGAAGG + anchor), 100 nM annealed; ATP concentration: 500 uM;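 note: ATP exposure 15 min at 22 °C before imaging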
As shown below, each of these sequences has a reported switch fluorescence ratio value.
Returns: the value as a bare number; no unit string appended.

Recorded results for 4 sequences are shown here.
> print(dat)
   sequence.chain  tested.on         attribute.measured  quantitative.readout
1      GGGGACTGCG        ATP  switch fluorescence ratio                  1.05
2      TGTTGAAGAT        ATP  switch fluorescence ratio                     1
3      GGCGGCATGG        ATP  switch fluorescence ratio                  1.04
4      CGTTGGCAGC        ATP  switch fluorescence ratio                  1.03

GET /values?readout=switch fluorescence ratio&system=ATP&item= TCGGCAGGGG;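 note: ATP exposure 15 min at 22 °C before imaging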
1.09

GET /values?readout=switch fluorescence ratio&system=ATP&item= GACGCTCAGC;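 note: ATP exposure 15 min at 22 °C before imaging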
1.39

GET /values?readout=switch fluorescence ratio&system=ATP&item= AACGGTATTC;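 note: ATP exposure 15 min at 22 °C before imaging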
1.07

GET /values?readout=switch fluorescence ratio&system=ATP&item= ATGTTGATAC;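 note: ATP exposure 15 min at 22 °C before imaging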
1.07

GET /values?readout=switch fluorescence ratio&system=ATP&item= TAAATGCGCC;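 note: ATP exposure 15 min at 22 °C before imaging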
1.09

GET /values?readout=switch fluorescence ratio&system=ATP&item= GTGAAAAGCA;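 note: ATP exposure 15 min at 22 °C before imaging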
1.04

GET /values?readout=switch fluorescence ratio&system=ATP&item= TGATTCCGCA;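 note: ATP exposure 15 min at 22 °C before imaging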
3.07

GET /values?readout=switch fluorescence ratio&system=ATP&item= TATGCATGTG;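 note: ATP exposure 15 min at 22 °C before imaging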
0.996

GET /values?readout=switch fluorescence ratio&system=ATP&item= GCGGCAAGGA;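 note: ATP exposure 15 min at 22 °C before imaging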
1.04

GET /values?readout=switch fluorescence ratio&system=ATP&item= TATGCGGGGG;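 note: ATP exposure 15 min at 22 °C before imaging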
1.02

* * *

As shown below, each of these sequences has a reported switch fluorescence ratio value.
tested on: ATP; assay: switch fluorescence ratio, 500 uM ATP over buffer (Cy3 cluster intensity, sum of 5 cycles each) (fold (ratio)); higher = stronger signal-on switching upon ATP binding; sequences stand for … in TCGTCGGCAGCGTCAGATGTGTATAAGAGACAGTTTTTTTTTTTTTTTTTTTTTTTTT…TC; settings: aptamer strand: ATP DNA aptamer (quencher-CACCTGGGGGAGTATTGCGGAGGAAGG + anchor), 100 nM annealed; ATP concentration: 500 uM;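 note: ATP exposure 15 min at 22 °C before imaging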
Returns: the value as a bare number; no unit string appended.

> print(dat)
   sequence.chain  quantitative.readout
1      TTGGAATTCT                  1.04
2      TCCAAGGGTA                 0.997
3      TATAATGTGC                  1.04
4        AGGGGGTT                     1
5      TGTTCTAGGT                  1.01
6      TATGTTTCAA                  1.02

Which value of switch fluorescence ratio has been reported for GAAACGCTTT in the records?
1.03

Which value of switch fluorescence ratio has been reported for CAATAGTTGG in the records?
0.993

Which value of switch fluorescence ratio has been reported for TGTTAATAGT in the records?
0.981

Which value of switch fluorescence ratio has been reported for ACGTTAATGC in the records?
2.09

Which value of switch fluorescence ratio has been reported for ATGAAGATTA in the records?
0.987

Which value of switch fluorescence ratio has been reported for GTTTGGAGGG in the records?
0.979

Which value of switch fluorescence ratio has been reported for CGTTTTTAGG in the records?
1.02
